system: fighting developed by electric shock; assay: anti-fighting activity (suppressing or taming effect against electric foot shock induced fighting); format: in vivo, ddy male mice; conditions: Mus musculus, 0.05 h; PO, mice; electric shock 28 V-DC, 4-5 mA, 3 min.; read-out: ED50 taming effect
measure_name: ED50 (mg/kg)
Numeric answer only, unit mg/kg assumed.

In the examples that follow, each entry is paired with its recorded ED50.
[
  {
    "compound": "COc1cc2c(cc1OCCCN1CCN(c3ccc(F)cc3)CC1)CCC2",
    "measure_name": "ED50",
    "unit_spec": "mg/kg",
    "recorded_result": 13
  },
  {
    "compound": "Fc1cc2c(cc1OCCCN1CCN(c3cccc(Cl)c3)CC1)CCC2",
    "measure_name": "ED50",
    "unit_spec": "mg/kg",
    "recorded_result": 14.5
  },
  {
    "compound": "c1ccc(N2CCN(CCCOc3ccc4c(c3)CCC4)CC2)cc1",
    "measure_name": "ED50",
    "unit_spec": "mg/kg",
    "recorded_result": 6.6
  },
  {
    "compound": "Fc1ccc(N2CCN(CCCOc3cc4c(cc3F)CCC4)CC2)cc1",
    "measure_name": "ED50",
    "unit_spec": "mg/kg",
    "recorded_result": 1
  }
]

Please look at the following compound next.
stdin: Need ED50, item O=C(CCCN1CCN(c2ccc(F)cc2)CC1)c1ccc2c(c1)CCC2 [Compound 40, reference compound]
stdout: 20

====

test: LD50 (Litchfield-Wilcoxon method); conditions: mouse, in vivo, PO, mice
measure_name: LD50

Study these solved cases before continuing.
[
  {
    "compound": "Fc1cc2c(cc1OCCCN1CCN(c3cccc(Cl)c3)CC1)CCC2",
    "LD50": "1500 to 2000 mg/kg"
  },
  {
    "compound": "Cc1cc2c(cc1OCCCN1CCN(c3ccccc3)CC1)CCC2",
    "LD50": "> 2000 mg/kg"
  },
  {
    "compound": "CNC1=Nc2ccc(Cl)cc2C(c2ccccc2)=[N+]([O-])C1 [Chlorodiazepoxide, reference compound]",
    "LD50": "720 mg/kg"
  }
]

stdin: Report LD50 for `COc1cc2c(cc1OCCCN1CCN(c3ccc(F)cc3)CC1)CCC2` please.
stdout: > 1000 mg/kg

stdin: Form field: reported LD50 of `c1ccc(N2CCN(CCCOc3ccc4c(c3)CCC4)CC2)cc1`
stdout: > 1500 mg/kg

stdin: I would be grateful if you could share the reported LD50 for `Fc1cc2c(cc1OCCCN1CCN(c3ccccc3)CC1)CCC2` .
stdout: > 2000 mg/kg

stdin: Dear colleague, I am looking for the recorded LD50 of the following compound: `Fc1ccc(N2CCN(CCCOc3cc4c(cc3F)CCC4)CC2)cc1`
stdout: > 2000 mg/kg

stdin: Quick one: LD50 of O=C(CCCN1CCN(c2ccc(F)cc2)CC1)c1ccc2c(c1)CCC2 [Compound 40, reference compound] ?
stdout: 1000 to 1500 mg/kg

stdin: Look at this compound and give its reported LD50. `Clc1cccc(N2CCN(CCCOc3ccc4c(c3)CCC4)CC2)c1`
stdout: > 2000 mg/kg

stdin: Which value of LD50 has been reported for `Fc1ccc(N2CCN(CCCOc3ccc4c(c3)CCC4)CC2)cc1` in the records?
stdout: > 2000 mg/kg

stdin: Requested read-out: LD50. Entry: `Fc1ccc(N2CCN(CCCCOc3ccc4c(c3)CCC4)CC2)cc1`
stdout: > 1100 mg/kg

====

test system: fighting developed by electric shock; assay: anti-fighting activity (suppressing or taming effect against electric foot shock induced fighting); assay type: in vivo, ddy male mice; conditions: Mus musculus, 0.05 h; PO, mice; electric shock 28 V-DC, 4-5 mA, 3 min.; read-out: ED50 taming effect
Reported ED50 values follow for various molecules
Your answer is read as mg/kg, so omit the unit and give the number.

Observe how each entry below is paired with its result.
[
  {
    "molecule": "Fc1ccc(N2CCN(CCCOc3ccc4c(c3)CCC4)CC2)cc1 [Compound 4]",
    "measure_name": "ED50",
    "unit_spec": "mg/kg",
    "recorded_result": 7.5
  },
  {
    "molecule": "Fc1cc2c(cc1OCCCN1CCN(c3ccccc3)CC1)CCC2 [Compound 18]",
    "measure_name": "ED50",
    "unit_spec": "mg/kg",
    "recorded_result": 2.9
  },
  {
    "molecule": "Clc1cccc(N2CCN(CCCOc3ccc4c(c3)CCC4)CC2)c1 [Compound 17]",
    "measure_name": "ED50",
    "unit_spec": "mg/kg",
    "recorded_result": 12.6
  }
]

stdin: Which ED50 reading was recorded for the molecule Fc1ccc(N2CCN(CCCCOc3ccc4c(c3)CCC4)CC2)cc1 [Compound 5] ?
stdout: 12

stdin: Requested read-out: ED50. Entry: Cc1cc2c(cc1OCCCN1CCN(c3ccccc3)CC1)CCC2 [Compound 24]
stdout: 8.5
